Reported Kd values follow for various molecules
assay: Binding affinity to Salmonella Typhimurium ATCC 14028 O-acetylserine sulfhydrylase A assessed as dissociation constant; design: species or system Salmonella enterica subsp. enterica serovar Typhimurium
// return numeric value only (unit: nM, not printed)

Cc1ccc(C[C@@]2(C(=O)O)C[C@H]2c2ccccc2)cc1    20

Now for another entry.
Tell me its Kd given Cc1ccc(C[C@@]2(C(=O)O)C[C@H]2c2cccc(-c3cc(O)cc(F)c3)c2)cc1 as the entry.
30

* * *

test: Inhibition of Klebsiella pneumoniae Serine acetyltransferase
measured-endpoint: IC50 (µM)
Please give a number only; it is taken to be in µM.

Return IC50 for the following molecule: O=c1c(O)c(-c2ccc(O)c(O)c2)oc2cc(O)cc(O)c12 [QUERCETIN]
3.7
